Recorded Kd for the following binders
biological target: T1, human CD8αα homodimer, recombinant protein (Acro Biosystems) (human, UniProt P01732 22-182); experiment: BLI kinetics, F(ab) on biotinylated CD8α (SA-XT sensor), 1:1 fit, 30 °C
T1 construct: also called CD8αα antigen; biotinylated CD8α recombinant protein (CDA-H82E3)
T1 sequence (P01732 22-182 limits assumed): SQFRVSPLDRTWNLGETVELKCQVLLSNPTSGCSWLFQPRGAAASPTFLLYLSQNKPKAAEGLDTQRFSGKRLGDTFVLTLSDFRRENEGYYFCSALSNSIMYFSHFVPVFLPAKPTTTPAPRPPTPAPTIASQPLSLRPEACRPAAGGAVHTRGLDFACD
Entry rule: numbers only, all in nM.

Sample records with Kd:
| binder | endpoint name | unit info | observed result |
| --- | --- | --- | --- |
| CBD1033 Fab (h1017-H2 / h1017-L2) (Fab, V domains shown, Expressed as F(ab) fragment; also called CBD1033 Fab molecule) VH: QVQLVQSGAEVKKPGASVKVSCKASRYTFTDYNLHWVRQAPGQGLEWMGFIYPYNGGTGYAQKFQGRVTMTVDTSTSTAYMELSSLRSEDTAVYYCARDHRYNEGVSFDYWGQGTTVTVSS VL: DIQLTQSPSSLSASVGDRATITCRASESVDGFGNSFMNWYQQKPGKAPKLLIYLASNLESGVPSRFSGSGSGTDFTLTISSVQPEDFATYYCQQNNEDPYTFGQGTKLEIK | Kd | nM | 3.25 |
| CDB1017p (Fab, V domains shown, CDB1017p [sic]; also called CBD1017p; mouse CT8 F(ab)) VH: EVQLQQSGPELVKPGASVKISCKASRYTFTDYNLHWVKLSHEKSLEWIGFIYPYNGGTGYNQKFKNKAKLTVDYSSSTAYMELRSLTSVDAAVYYCARDHRYNEGVSFDYWGQGTTLTVSS VL: NIVLTQSPASLAVSLGQRATISCRASESVDGFGNSFMNWYQQKPGQSPKLLIYLASNLESGVPARFSGSGSRTDFTLTIDPVEADDAATYYCQQNNEDPYTFGGGTKLEIK | Kd | nM | 1.19 |
| CBD1039 (Fab, V domains shown, also called h1017-H5/L2 F(ab)) VH: QVQLVQSGAEVKKPGASVKISCKASRYTFTDYNLHWVRQAPGQGLEWIGFIYPYNGGTGYAQKFQGRATLTVDYSTSTAYMELSSLRSEDTAVYYCARDHRYNEGVSFDYWGQGTTLTVSS VL: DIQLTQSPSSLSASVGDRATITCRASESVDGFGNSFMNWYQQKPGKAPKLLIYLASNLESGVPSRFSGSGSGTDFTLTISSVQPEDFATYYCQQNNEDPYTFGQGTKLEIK | Kd | nM | 3.11 |
| CBD1036 (Fab, V domains shown, also called h1017-H3/L3 F(ab)) VH: QVQLVQSGAEVKKPGASVKISCKASRYTFTDYNLHWVRQAPGQGLEWIGFIYPYNGGTGYAQKFQGRATLTVDTSTSTAYMELSSLRSEDTAVYYCARDHRYNEGVSFDYWGQGTTLTVSS VL: DIQLTQSPSSLSASVGDRATITCRASESVDGFGNSFMNWYQQKPGKAPKLLIYLASNLESGVPSRFSGSGSRTDFTLTISSVQPEDFATYYCQQNNEDPYTFGQGTKLEIK | Kd | nM | 6.16 |
| CBD1037 (Fab, V domains shown, also called h1017-H4/L2 F(ab)) VH: QVQLVQSGAEVKKPGASVKVSCKASRYTFTDYNLHWVRQAPGQGLEWMGFIYPYNGGTGYAQKFQGRVTMTVDYSTSTAYMELSSLRSEDTAVYYCARDHRYNEGVSFDYWGQGTTVTVSS VL: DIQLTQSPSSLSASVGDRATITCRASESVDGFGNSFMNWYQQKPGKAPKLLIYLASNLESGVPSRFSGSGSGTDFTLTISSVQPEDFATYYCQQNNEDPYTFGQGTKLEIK | Kd | nM | 1.72 |

Per the record, CBD1040 (Fab, V domains shown, also called h1017-H5/L3 F(ab)) VH: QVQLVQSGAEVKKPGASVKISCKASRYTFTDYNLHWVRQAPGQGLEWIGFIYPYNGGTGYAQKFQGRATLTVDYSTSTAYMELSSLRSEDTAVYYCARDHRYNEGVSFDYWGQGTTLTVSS VL: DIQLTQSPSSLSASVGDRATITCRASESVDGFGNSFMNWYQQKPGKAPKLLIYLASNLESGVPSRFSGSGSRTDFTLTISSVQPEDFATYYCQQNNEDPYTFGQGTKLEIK has Kd of 6.07

Value source: patent US20250195685A1
